Value source: the supplement of paper PMC9112550

- Tested on: Escherichia coli TOP10;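 also: peptides expressed intracellularly from a pBAD plasmid library in pooled LB shake-flask culture, induced with 0.3% L-arabinose, DNA abundance read by NGS, three biological replicates, DESeq2 with apeglm shrinkage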
- Method Summary: shrunken log2 fold change of peptide-encoding DNA abundance (4.5 h post-induction vs induction); higher = less antimicrobial activity (less host growth inhibition)
- Details: time post-induction: 4.5 h; library: site-saturation at positions 5, 18, 19, 20
So I've got a bunch of sequences here, and I need their shrunken log2 fold change values.
# output: bare number, no unit

Need shrunken log2 fold change of `RRIRCRPPRLPRPRPRPQICPRP` , thanks.
0.0827

What value of shrunken log2 fold change has been recorded for this entry: `RRIRYRPPRLPRPRPRPVAEPRP`
-0.0801

May I ask what shrunken log2 fold change has been recorded for `RRIRGRPPRLPRPRPRPTTDPRP` ?
0.918

Query (sequence): `RRIRHRPPRLPRPRPRPEQWPRP` ; field requested: shrunken log2 fold change
0.0101

For the sequence shown here, `RRIRYRPPRLPRPRPRPAVRPRP` , give the reported shrunken log2 fold change.
-0.0403

Look at this sequence and give its reported shrunken log2 fold change. `RRIRIRPPRLPRPRPRPYLQPRP`
-0.00195

Any idea what shrunken log2 fold change was measured for `RRIRPRPPRLPRPRPRPCTVPRP` ?
0.0392

Which shrunken log2 fold change value is on record for `RRIRCRPPRLPRPRPRPFLAPRP` ?
0.0788

Looking for the measured shrunken log2 fold change of `RRIRRRPPRLPRPRPRPNLVPRP` , can you help?
-0.023

# query: shrunken log2 fold change of entry `RRIRWRPPRLPRPRPRPLLQPRP`
0.2

Name the recorded shrunken log2 fold change for `RRIRGRPPRLPRPRPRPMHDPRP` .
0.361

Would you mind telling me what shrunken log2 fold change value was observed for `RRIRARPPRLPRPRPRPQFCPRP` ?
-0.0724

Recorded shrunken log2 fold change for `RRIRKRPPRLPRPRPRPANLPRP` , please?
0.299

Data request, read-out shrunken log2 fold change, for `RRIRWRPPRLPRPRPRPRYYPRP`
-0.0581

// shrunken log2 fold change lookup, key: `RRIRFRPPRLPRPRPRPEWNPRP`
-0.21
